Measured on: Mucosa-associated lymphoid tissue lymphoma translocation protein 1 (Homo sapiens, UniProt Q9UDY8)
Sequence (Q9UDY8 whole entry): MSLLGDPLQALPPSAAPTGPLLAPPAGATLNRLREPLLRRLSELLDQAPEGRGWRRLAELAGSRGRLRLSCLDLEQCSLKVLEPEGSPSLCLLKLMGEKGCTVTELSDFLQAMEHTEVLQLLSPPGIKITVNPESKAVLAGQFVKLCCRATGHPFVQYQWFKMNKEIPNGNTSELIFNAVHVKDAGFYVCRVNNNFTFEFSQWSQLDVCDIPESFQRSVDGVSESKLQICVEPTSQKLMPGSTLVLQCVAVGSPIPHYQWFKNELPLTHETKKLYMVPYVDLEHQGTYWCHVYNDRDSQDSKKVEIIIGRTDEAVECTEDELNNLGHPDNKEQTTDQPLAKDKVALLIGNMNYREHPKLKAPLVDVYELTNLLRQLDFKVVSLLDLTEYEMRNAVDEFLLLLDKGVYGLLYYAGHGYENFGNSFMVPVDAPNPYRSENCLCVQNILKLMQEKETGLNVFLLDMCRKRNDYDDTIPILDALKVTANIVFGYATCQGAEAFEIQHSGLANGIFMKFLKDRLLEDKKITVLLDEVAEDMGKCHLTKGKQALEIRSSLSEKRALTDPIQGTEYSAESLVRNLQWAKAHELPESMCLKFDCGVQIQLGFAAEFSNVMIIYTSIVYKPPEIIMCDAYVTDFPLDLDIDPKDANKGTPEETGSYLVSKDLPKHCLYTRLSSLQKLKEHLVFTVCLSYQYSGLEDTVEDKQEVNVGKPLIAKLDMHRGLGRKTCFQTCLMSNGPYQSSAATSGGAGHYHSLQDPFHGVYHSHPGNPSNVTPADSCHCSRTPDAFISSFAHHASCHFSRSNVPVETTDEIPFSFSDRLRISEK
Here, each record is paired with measured IC50 data.

Compound | IC50 [nM]
CN(C(=O)C1CCS(=O)(=O)CC1)[C@@H](c1ccc(N2CC[C@@]3(CCOC3)c3c2cnc2cc(Cl)nn32)cc1)C(F)(F)F [US20250051327, Reference CPD0073762] | 53
COc1ccc2ncc(Nc3ccc([C@H](N(C)C(=O)C4CCS(=O)(=O)CC4)C(F)(F)F)cc3)c([C@@H]3CCOC3)c2n1 [US20250051327, Reference CPD0074040] | 83
COC[C@]1(C)CCN(c2ccc([C@H](N(C)C(=O)C3CCS(=O)(=O)CC3)C(F)(F)F)cc2)c2cnc3cc(Cl)nn3c21 [US20250051327, Reference CPD0073140] | 92
COc1ccc2ncc(Nc3ccc([C@H](N(C)C(=O)C4CCS(=O)(=O)CC4)C(F)(F)F)cc3)c(C3(OC)COC3)c2n1 [US20250051327, Reference CPD0076414] | 124

Provenance of the data: BindingDB's records for patent US20250051327
